# experimental_target: Pancreatic alpha-amylase (Homo sapiens)
# procedure_summary: Activity of alpha amylase (unknown origin) at 1 mg/ml after 10 min relative to control
parameter: Activity (%)
Please give a number only; it is taken to be in %.

What value of Activity has been recorded for this entry: CC(=O)N1N=C(c2ccc(-n3nc(C)n(N)c3=O)cc2)CC1c1ccccc1 (centres undefined)
129

Then this compound: CC(=O)N1N=C(c2ccc(-n3nc(C)n(N)c3=O)cc2)CC1c1ccccc1Cl (centres undefined)
76.7

====

# procedure_summary: Induction of DNA cleavage at 100 ug after 2 hr by electrophoresis relative to control
Activity calls are given as the source filed them. No cut-off for these calls is given here.
parameter: Activity

// below: answered compounds
{"columns": ["compound", "parameter", "value_observed"],
 "data": [
  ["CC(=O)N1N=C(c2ccc(-n3nc(C)n(N)c3=O)cc2)CC1c1ccc(C)cc1 (stereo not given)", "Activity", "Active"],
  ["CC(=O)N1N=C(c2ccc(-n3nc(C)n(N)c3=O)cc2)CC1c1ccc(Cl)cc1 (stereo not given)", "Activity", "Active"],
  ["COc1ccc(C2CC(c3ccc(-n4nc(C)n(N)c4=O)cc3)=NN2C(C)=O)cc1OC (stereo not given)", "Activity", "Active"],
  ["CC(=O)N1N=C(c2ccc(-n3nc(C)n(N)c3=O)cc2)CC1c1cccc(Cl)c1 (stereo not given)", "Activity", "Active"]
]}

// below: Activity requested for another compound
I would be grateful if you could share the reported Activity for COc1ccc(C2CC(c3ccc(-n4nc(C)n(N)c4=O)cc3)=NN2C(C)=O)cc1 (stereo not given) .
Active

Cited source for all entries: ChEMBL document CHEMBL3045844
